# study target: TDP-43 (Homo sapiens, UniProt Q13148 1-414)
# Sequence (Q13148 whole entry): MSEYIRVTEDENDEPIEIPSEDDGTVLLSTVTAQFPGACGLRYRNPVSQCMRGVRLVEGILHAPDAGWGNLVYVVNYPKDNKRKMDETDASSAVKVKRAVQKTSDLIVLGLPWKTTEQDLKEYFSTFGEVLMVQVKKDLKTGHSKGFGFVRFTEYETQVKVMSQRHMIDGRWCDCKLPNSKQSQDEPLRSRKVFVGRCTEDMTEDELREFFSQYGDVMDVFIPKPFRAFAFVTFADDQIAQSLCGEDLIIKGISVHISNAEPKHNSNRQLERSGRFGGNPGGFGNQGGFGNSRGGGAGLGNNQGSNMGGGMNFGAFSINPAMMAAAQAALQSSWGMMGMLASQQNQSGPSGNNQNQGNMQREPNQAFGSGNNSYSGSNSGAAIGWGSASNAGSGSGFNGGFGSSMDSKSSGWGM
# experimental protocol: RNA Bind-n-Seq with designed 260-mer pool; 25 mM Tris-HCl, 150 mM KCl, 3 mM MgCl2, BSA (printed 500 mg/mL), 20 units/mL SUPERase IN; pH not stated; 500 nM RNA pool, 1 h, 4 C; TDP-43 5, 50, 500 nM; high values mean tight binding
# experimental parameters: protein: recombinant; tags: SBP (GST cleaved off with PreScission; pGEX-GST-SBP)
Over roughly 9,900 sequences, “r (bound/input frequency ratio)” has its median near 0.7; the highest 2% begin near 6.5. For the sample, the highest values were picked, then their nearest neighbours and some sequences at random.
outcome measure: binding signal

binder	val
ENSMUSG00000061578.1466|Ksr2 (ssRNA) RNA: GGGAGUUCUACAGUCCGACGAUCGCUUCGAUAUCCGCAUGCUAUAUGAAUGAAUGGAUGAAUGGAUGGGUGAAUGGAUGGAUAGGUAUGUGAAUAAAUGGAUGGAUGGAUGGAUUGAUUUGUGAAUGAAUGGAUGAAUGGAUGGGUAGGUGGGUGGAUGCAUAGGCAAGUAGAUGAAUGAAUAUGUGGGUAGAAGGGUGAGUGGGUGGAUGAAUGGAUGGAUAGGUUGGUAGGUUAAUGUAUUCGUGGAUGGGUGAAUGGAUGGAUGGAUAGAUAGAUGGGAAGGUGGAUGGACAGAUGGAUGCUCUUGCGGUCGCACUAGUGUGGAAUUCUCGGGUGUCAAGG	5.78 R (bound/input frequency ratio)
